System Tested: F508del-CFTR (Homo sapiens, UniProt P13569, DEL508-508)
Sequence (P13569 with tags, fused parts or gaps DEL508-508): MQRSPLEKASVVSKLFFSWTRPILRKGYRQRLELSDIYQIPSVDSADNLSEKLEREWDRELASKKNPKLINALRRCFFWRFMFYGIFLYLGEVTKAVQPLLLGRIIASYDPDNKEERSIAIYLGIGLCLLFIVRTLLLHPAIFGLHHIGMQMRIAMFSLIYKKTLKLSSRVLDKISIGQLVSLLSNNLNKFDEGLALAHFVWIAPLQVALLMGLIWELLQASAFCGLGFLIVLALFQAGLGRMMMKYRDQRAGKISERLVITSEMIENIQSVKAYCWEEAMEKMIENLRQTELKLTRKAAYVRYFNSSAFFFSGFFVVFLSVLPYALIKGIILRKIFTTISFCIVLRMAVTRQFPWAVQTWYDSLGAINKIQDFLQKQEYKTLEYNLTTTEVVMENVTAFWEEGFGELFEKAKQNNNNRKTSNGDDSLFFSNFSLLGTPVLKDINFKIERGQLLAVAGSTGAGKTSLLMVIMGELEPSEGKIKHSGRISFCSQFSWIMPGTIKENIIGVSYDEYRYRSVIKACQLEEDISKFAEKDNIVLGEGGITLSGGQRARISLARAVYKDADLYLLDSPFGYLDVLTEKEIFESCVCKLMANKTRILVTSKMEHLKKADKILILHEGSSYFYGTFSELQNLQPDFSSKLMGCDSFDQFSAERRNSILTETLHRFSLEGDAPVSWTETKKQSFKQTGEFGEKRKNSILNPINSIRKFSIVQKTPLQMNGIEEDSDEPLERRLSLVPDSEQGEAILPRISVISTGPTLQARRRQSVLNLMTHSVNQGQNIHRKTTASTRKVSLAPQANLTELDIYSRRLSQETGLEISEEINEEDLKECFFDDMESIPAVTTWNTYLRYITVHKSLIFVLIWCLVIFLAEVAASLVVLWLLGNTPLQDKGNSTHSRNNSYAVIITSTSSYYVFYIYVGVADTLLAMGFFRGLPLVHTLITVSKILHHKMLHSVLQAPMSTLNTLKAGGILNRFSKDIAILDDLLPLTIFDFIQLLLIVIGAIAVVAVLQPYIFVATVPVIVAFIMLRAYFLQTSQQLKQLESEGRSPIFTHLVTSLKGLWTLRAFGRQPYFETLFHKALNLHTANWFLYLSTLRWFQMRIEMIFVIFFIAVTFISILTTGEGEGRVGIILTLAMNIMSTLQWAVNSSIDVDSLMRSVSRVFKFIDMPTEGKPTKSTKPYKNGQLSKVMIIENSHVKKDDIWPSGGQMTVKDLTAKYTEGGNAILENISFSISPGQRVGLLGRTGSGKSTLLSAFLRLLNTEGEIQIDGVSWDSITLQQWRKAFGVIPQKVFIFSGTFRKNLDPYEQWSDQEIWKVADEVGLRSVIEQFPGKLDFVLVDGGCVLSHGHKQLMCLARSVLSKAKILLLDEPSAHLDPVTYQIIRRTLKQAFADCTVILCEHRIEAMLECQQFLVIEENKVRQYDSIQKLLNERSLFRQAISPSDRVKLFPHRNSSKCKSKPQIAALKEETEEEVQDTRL
Protocol Description: HS-YFP iodide-influx fluorescence quenching assay, […] h incubation, Hill fit
Condition Context: read-out: half-effective concentration
Readout Label: EC50 (µM)
Give bare numbers, in µM.

For the molecule COc1ccc(Cl)cc1NC(=O)c1cc2c([nH]1)-c1nc(NC(=O)C(C)(C)C)sc1CC2 , give its reported EC50.
5
